Entry source: patent US20030148958A1

Each entry below lists one item and its recorded CRF2R Emax value.
# ASSAYED SYSTEM: T1, corticotropin releasing factor 2 receptor; note: reference of the scale not given here
# T1 sequence (Q13324 whole entry, species assumed, looked up): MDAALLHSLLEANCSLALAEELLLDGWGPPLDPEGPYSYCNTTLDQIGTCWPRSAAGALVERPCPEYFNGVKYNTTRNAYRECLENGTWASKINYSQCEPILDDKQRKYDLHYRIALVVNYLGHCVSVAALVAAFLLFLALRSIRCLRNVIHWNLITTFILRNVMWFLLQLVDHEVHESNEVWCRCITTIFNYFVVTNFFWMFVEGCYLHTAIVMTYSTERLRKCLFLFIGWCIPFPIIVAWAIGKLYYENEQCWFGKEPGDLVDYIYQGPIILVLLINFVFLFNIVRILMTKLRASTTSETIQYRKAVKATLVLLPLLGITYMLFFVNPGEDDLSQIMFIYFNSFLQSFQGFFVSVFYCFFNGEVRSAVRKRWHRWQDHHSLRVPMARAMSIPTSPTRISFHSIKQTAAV
# ASSAY PROTOCOL: cell-based or functional assay
Ends that are not written are not given here.
Numbers only; they are read as %.

Look over these answered cases.
| BINDER | CRF2R Emax / % |
| --- | --- |
| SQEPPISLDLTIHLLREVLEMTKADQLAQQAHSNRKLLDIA-NH2 [SEQ ID NO 87] | 14.7 |
| ZGPPISIDLPLVLLRKMIEIEKQEKEKQQAANNRLLLDTI (C-terminal amide) [SEQ ID NO 193] | 97 |
| ZGPPISIDLPFQLLRKMIEIEKQEKEKQQATTNRLLLDRV (C-terminal amide) [SEQ ID NO 18] | 97 |
| IVLSLDVPIGLLQELLEMARAEQLAQQAHSNRKLMEII-NH2 [SEQ ID NO 1] | 100 |
| DNPSLSIDLPTYLLRTLLELARTQSQRERAEQNAIIFASV-NH2 [SEQ ID NO 173] | 65.2 |

// CRF2R Emax lookup, binder = ZGPPISIDLPYQLLRKMIEIEKQEKEKQQAANNRLLLDTI (C-terminal amide) [SEQ ID NO 202] , result: 99

// CRF2R Emax lookup, binder = IVLSLDVPIGLLQILLEQTRARAAREQATTNARILARV-NH2 [SEQ ID NO 128] , result: 98
